Value source: PubChem BioAssay AID1745844

# Test system: rodent lifetime carcinogenesis bioassay, tumor incidence TD50
# RUN_DESCRIPTION: carcinogenic potency in animals, long-term in vivo studies, CPDB compilation (AID 1745844)
# REPORTED_CONDITIONS: rat; strain Fischer 344; males; in feed; site: Zymbal's gland; lesion: carcinoma; dosed 103 weeks; study length 104 weeks
MEASURED_ATTRIBUTE: TD50 (mg/kg/day)
Write down the numeric answer in mg/kg/day and omit the unit.

Request: TD50 for Cc1ccc(N=Nc2c(O)ccc3ccccc23)c([N+](=O)[O-])c1 ?
Result: 9010

###

# System: rodent lifetime carcinogenesis bioassay, tumor incidence TD50
# RUN_DESCRIPTION: carcinogenic potency in animals, long-term in vivo studies, CPDB compilation (AID 1745844)
# REPORTED_CONDITIONS: rat; strain Sprague-Dawley; both sexes; in drinking water; site: esophagus; lesion: several types; types named in the paper; dosed 104 weeks; study length 104 weeks
MEASURED_ATTRIBUTE: TD50

Request: TD50 for CN(N=O)c1ccccc1 ?
Result: 0.0343 mg/kg/day

###

# Test system: rodent lifetime carcinogenesis bioassay, tumor incidence TD50
# RUN_DESCRIPTION: carcinogenic potency in animals, long-term in vivo studies, CPDB compilation (AID 1745844)
# REPORTED_CONDITIONS: rat; strain Fischer 344; females; in drinking water; site: colon + rectum; lesion: adenomatous polyp; dosed 60 weeks; study length 60 weeks
MEASURED_ATTRIBUTE: TD50
Form field: result (number plus unit)

Request: TD50 for Cc1cc(-c2ccc(N)c(C)c2)ccc1N ?
Result: 7.11 mg/kg/day

###

# Tested on: rodent lifetime carcinogenesis bioassay, tumor incidence TD50
# RUN_DESCRIPTION: carcinogenic potency in animals, long-term in vivo studies, CPDB compilation (AID 1745844)
# REPORTED_CONDITIONS: rat; strain Fischer 344; males; in feed; site: pancreatic islets; lesion: islet-cell adenoma; dosed 103 weeks; study length 105 weeks
Calls of active or inactive are those of the source. How the calls were made is not given here.
MEASURED_ATTRIBUTE: TD50

Request: TD50 for CCCOC(=O)c1cc(O)c(O)c(O)c1 ?
Result: 749 mg/kg/day (inactive)

###

# System: rodent lifetime carcinogenesis bioassay, tumor incidence TD50
# RUN_DESCRIPTION: carcinogenic potency in animals, long-term in vivo studies, CPDB compilation (AID 1745844)
# REPORTED_CONDITIONS: rat; strain Sprague-Dawley; females; in drinking water; site: mammary gland; lesion: benign tumor; dosed 104 weeks; study length 120 weeks
MEASURED_ATTRIBUTE: TD50 (mg/kg/day)
Write down the numeric answer in mg/kg/day and omit the unit.

Request: TD50 for CCO ?
Result: 6070

###

# Tested on: rodent lifetime carcinogenesis bioassay, tumor incidence TD50
# RUN_DESCRIPTION: carcinogenic potency in animals, long-term in vivo studies, CPDB compilation (AID 1745844)
# REPORTED_CONDITIONS: rat; strain Fischer 344; males; in feed; site: any site (literature study); lesion: several types; types named in the paper; dosed 78 weeks; study length 104 weeks
Calls of active or inactive are those of the source. The rule behind the calls is not given here.
MEASURED_ATTRIBUTE: TD50

Look over these answered cases.
Request: For the record Nc1ccc(S(=O)(=O)c2ccc(N)cc2)cc1 , what value of TD50 is listed for rodent lifetime carcinogenesis bioassay, tumor incidence TD50?
Result: 22.4 mg/kg/day

Request: # iterate: Nc1ccc(Cl)c(N)c1
Result: 422 mg/kg/day

Request: # iterate: NC(=O)c1cnccn1
Result: 284 mg/kg/day (inactive)

More entries:
Request: For the record Nc1ccc(Nc2ccccc2)cc1 , what value of TD50 is listed for rodent lifetime carcinogenesis bioassay, tumor incidence TD50?
Result: 161 mg/kg/day (inactive)

Request: # iterate: Cc1ccc2c(c1N)C(=O)c1ccccc1C2=O
Result: 64.4 mg/kg/day
